Molecular target: human neutrophil elastase (Homo sapiens, UniProt P08246)
Sequence (P08246 30-267): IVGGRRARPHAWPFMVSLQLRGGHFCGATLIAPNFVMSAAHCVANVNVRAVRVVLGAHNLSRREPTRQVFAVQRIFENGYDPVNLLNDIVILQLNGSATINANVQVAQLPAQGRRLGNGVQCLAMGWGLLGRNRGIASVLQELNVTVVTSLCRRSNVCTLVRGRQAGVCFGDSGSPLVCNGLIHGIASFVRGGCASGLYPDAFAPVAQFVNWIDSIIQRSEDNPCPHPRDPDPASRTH
Assay: In vitro assay of human neutrophil elastase (HNE)
Type: biochemical
Conditions: 118 nM purified human neutrophil elastase, pH 8.6, 15 min incubation at 30° C., MeO-succinyl-alanyl-alanyl-prolyl-valyl-p-nitroanilide substrate; read-out: HNE IC50
pIC50: −log10 of the molar value. Where a name gives a salt, the structure may show the parent alone.
measurement.label: pIC50

compound | measured
CCC[C@H]1C(=O)N(S(C)(=O)=O)[C@H]2CCN(C(=O)CCN3CCC(C(N)=O)CC3)[C@H]12 (relative stereo) [Example 98, hydrochloride] | 6.80
CC(C)[C@H]1C(=O)N(S(C)(=O)=O)[C@H]2CCN(C(=O)CCCC3CCN(C)CC3)[C@H]12 (relative stereo) [Example 256, hydrochloride] | 7.11
C=CC[C@H]1C(=O)N(S(=O)(=O)c2cccc3cccnc23)[C@H]2CCN(C(=O)OCc3ccccc3)[C@H]12 (relative stereo) | 6.39
CC(C)[C@H]1C(=O)N(S(C)(=O)=O)[C@H]2CCN(C(=O)c3ccc(CN(C(C)C)C(C)C)cc3)[C@H]12 (relative stereo) [Example 201, hydrochloride] | 7.34
CCC[C@H]1C(=O)N(S(C)(=O)=O)[C@H]2CCN(S(=O)(=O)c3ccc(NC(C)=O)c(Cl)c3)[C@H]12 (relative stereo) | 7.40
CCC[C@H]1C(=O)N(S(C)(=O)=O)[C@H]2CCN(C(=O)CCNC(C)=O)[C@H]12 (relative stereo) | 6.87
CCC[C@H]1C(=O)N(S(C)(=O)=O)[C@H]2CCN(C(=O)/C=C/c3ccc(CN4CCCCC4)cc3)[C@H]12 (relative stereo) [Example 133, hydrochloride] | 7.21

* * *

Biological target: human neutrophil elastase (Homo sapiens, UniProt P08246)
Assay: In vitro assay of human neutrophil elastase (HNE)
Assay type: biochemical
Conditions: 118 nM purified human neutrophil elastase, pH 8.6, 15 min incubation at 30° C., MeO-succinyl-alanyl-alanyl-prolyl-valyl-p-nitroanilide substrate; read-out: HNE IC50
Structures can show the parent of a compound that is named as a salt.
Decision: IC50 beneath 80 nM gives y; IC50 meeting or exceeding 80 nM gives n.

compound | label.value
CCC[C@H]1C(=O)N(S(C)(=O)=O)[C@H]2CCN(S(=O)(=O)c3ccc(C(F)(F)F)cc3)[C@H]12 (relative stereo) | n
CCC[C@H]1C(=O)N(S(C)(=O)=O)[C@H]2CCN(S(=O)(=O)CCCN3CCOCC3)[C@H]12 (relative stereo) | y
CCC[C@H]1C(=O)N(S(C)(=O)=O)[C@H]2CCN(C(=O)/C=C/CN3CCN(C)CC3)[C@H]12.Cl.Cl (relative stereo) [Example 254, dihydrochloride] | n
CCC[C@H]1C(=O)N(S(C)(=O)=O)[C@H]2CCN(S(=O)(=O)c3ccc(CN4CCCCC4)cc3)[C@H]12 (relative stereo) [Example 194, hydrochloride] | y
